Test: Toxicity test of C8166 cells (MTT colorimetric method)
Assay type: cell-based
Conditions: human
READOUT TYPE: CC50 at 3 days

>  <MOLECULE>
O=C(NCc1c(F)cc(F)cc1F)c1cn2c(c(O)c1=O)C(=O)N1C(C2)S[C@@H]2CC[C@H]1C2 (stereo partly shown) [Compound 34]

>  <EXPERIMENTAL VALUE>
20.7 µM

$$$$

---

Assay: Toxicity test of C8166 cells (MTT colorimetric method)
Type: cell-based
Conditions: human, C8166 cells (T lymphocytic cell line); C8166 cells, MTT, 3 days; read-out: CC50
Counter-ions that a name gives are not always drawn.

>  <COMPOUND>
C[C@@H]1CSC2Cn3cc(C(=O)NCc4ccc(F)cc4F)c(=O)c(O)c3C(=O)N21 (some centres unmarked) [Compound 1]

>  <CC50 at 3 days [µM]>
20.3

$$$$
>  <COMPOUND>
CC(C)[C@H]1CSC2Cn3cc(C(=O)NCc4ccc(F)cc4F)c(=O)c(O)c3C(=O)N21 (some centres unmarked) [Compound 6]

>  <CC50 at 3 days [µM]>
22.6

$$$$
>  <COMPOUND>
CC(C)C[C@H]1CSC2Cn3cc(C(=O)NCc4ccc(F)cc4F)c(=O)c(O)c3C(=O)N21 (some centres unmarked) [Compound 20]

>  <CC50 at 3 days [µM]>
18.3

$$$$
>  <COMPOUND>
C[C@@H]1CCO[C@H]2Cn3cc(C(=O)NCc4ccc(F)cc4F)c(=O)c(O)c3C(=O)N12 [Dolutegravir, reference compound]

>  <CC50 at 3 days [µM]>
26.6

$$$$
>  <COMPOUND>
CC(C)OC(=O)OCOP(=O)(CO[C@H](C)Cn1cnc2c(N)ncnc21)OCOC(=O)OC(C)C [TDF, tenofovir disoproxil fumarate, reference compound]

>  <CC50 at 3 days [µM]>
157

$$$$
>  <COMPOUND>
C[C@H]1CSC2Cn3cc(C(=O)NCc4ccc(F)cc4)c(=O)c(O)c3C(=O)N21 (some centres unmarked) [Compound 66]

>  <CC50 at 3 days [µM]>
20.1

$$$$
>  <COMPOUND>
C[C@H]1CSC2Cn3cc(C(=O)NCc4ccc(F)cc4F)c(=O)c(O)c3C(=O)N21 (some centres unmarked) [Compound 2]

>  <CC50 at 3 days [µM]>
11.3

$$$$
>  <COMPOUND>
CC(C)(C)[C@H]1CSC2Cn3cc(C(=O)NCc4ccc(F)cc4F)c(=O)c(O)c3C(=O)N21 (some centres unmarked) [Compound 8]

>  <CC50 at 3 days [µM]>
26.3

$$$$
>  <COMPOUND>
CC(C)C1CSC2Cn3cc(C(=O)NCc4ccc(F)cc4F)c(=O)c(O)c3C(=O)N21 (centres unmarked) [Compound 5]

>  <CC50 at 3 days [µM]>
16.1

$$$$
>  <COMPOUND>
C[C@@H]1CCSC2Cn3cc(C(=O)NCc4ccc(F)cc4F)c(=O)c(O)c3C(=O)N21 (some centres unmarked) [Compound 18]

>  <CC50 at 3 days [µM]>
14

$$$$
>  <COMPOUND>
CC[C@@H]1CSC2Cn3cc(C(=O)NCc4ccc(F)cc4F)c(=O)c(O)c3C(=O)N21 (some centres unmarked) [Compound 3]

>  <CC50 at 3 days [µM]>
18.6

$$$$
>  <COMPOUND>
O=C(NCc1ccc(F)cc1F)c1cn2c(c(O)c1=O)C(=O)N1C(C2)SC[C@@H]1Cc1ccccc1 (some centres unmarked) [Compound 12]

>  <CC50 at 3 days [µM]>
28.6

$$$$
>  <COMPOUND>
O=C(NCc1ccc(F)cc1F)c1cn2c(c(O)c1=O)C(=O)N1C(C2)SC[C@@H]1c1ccccc1 (some centres unmarked) [Compound 10]

>  <CC50 at 3 days [µM]>
45.2

$$$$
>  <COMPOUND>
CC[C@H]1CSC2Cn3cc(C(=O)NCc4ccc(F)cc4F)c(=O)c(O)c3C(=O)N21 (some centres unmarked) [Compound 4]

>  <CC50 at 3 days [µM]>
18.6

$$$$
